System: HeLa Kyoto;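 also: HeLa Kyoto cells arrested at G1/S by double thymidine block, proteins quantified by TMT10plex mass spectrometry in mild NP-40 versus SDS extracts, three biological replicates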
Test: solubility in G1/S (NP-40 vs SDS abundance) (log2 ratio); higher = more soluble
Settings: cell cycle stage: G1/S
So basically: solubility in G1/S (log2) at 0.3 or higher? That is rule met. Lower than 0.3? That is rule not met.

Q: Decide: is the reported value of solubility in G1/S (log2) for MAAIPPDSWQPPNVYLETSMGIIVLELYWKHAPKTCKNFAELARRGYYNGTKFHRIIKDFMIQGGDPTGTGRGGASIYGKQFEDELHPDLKFTGAGILAMANAGPDTNGSQFFVTLAPTQWLDGKHTIFGRVCQGIGMVNRVGMVETNSQDRPVDDVKIIKAYPSG [PPIL1] equal to or greater than 0.3?
A: rule met

Q: Decide: is the reported value of solubility in G1/S (log2) for MTLQWAAVATFLYAEIGLILIFCLPFIPPQRWQKIFSFNVWGKIATFWNKAFLTIIILLIVLFLDAVREVRKYSSVHTIEKSSTSRPDAYEHTQMKLFRSQRNLYISGFSLFFWLVLRRLVTLITQLAKELSNKGVLKTQAENTNKAAKKFMEENEKLKRILKSHGKDEECVLEAENKKLVEDQEKLKTELRKTSDALSKAQNDVMEMKMQSERLSKEYDQLLKEHSELQDRLERGNKKRL [BCAP29] equal to or greater than 0.3?
A: rule not met

Q: Decide: is the reported value of solubility in G1/S (log2) for MLETLRERLLSVQQDFTSGLKTLSDKSREAKVKSKPRTVPFLPKYSAGLELLSRYEDTWAALHRRAKDCASAGELVDSEVVMLSAHWEKKKTSLVELQEQLQQLPALIADLESMTANLTHLEASFEEVENNLLHLEDLCGQCELERCKHMQSQQLENYKKNKRKELETFKAELDAEHAQKVLEMEHTQQMKLKERQKFFEEAFQQDMEQYLSTGYLQIAERREPIGSMSSMEVNVDMLEQMDLMDISDQEALDVFLNSGGEENTVLSPALGPESSTCQNEITLQVPNPSELRAKPPSSSSTCTDSATRDISEGGESPVVQSDEEEVQVDTALATSHTDREATPDGGEDSDS [DTNBP1] equal to or greater than 0.3?
A: rule not met

Q: Decide: is the reported value of solubility in G1/S (log2) for MGAPLLSPGWGAGAAGRRWWMLLAPLLPALLLVRPAGALVEGLYCGTRDCYEVLGVSRSAGKAEIARAYRQLARRYHPDRYRPQPGDEGPGRTPQSAEEAFLLVATAYETLKDEETRKDYDYMLDHPEEYYSHYYHYYSRRLAPKVDVRVVILVSVCAISVFQFFSWWNSYNKAISYLATVPKYRIQATEIAKQQGLLKKAKEKGKNKKSKEEIRDEEENIIKNIIKSKIDIKGGYQKPQICDLLLFQIILAPFHLCSYIVWYCRWIYNFNIKGKEYGEEERLYIIRKSMKMSKSQFDSLEDHQKETFLKRELWIKENYEVYKQEQEEELKKKLANDPRWKRYRRWMKNEGPGRLTFVDD [DNAJC25] equal to or greater than 0.3?
A: rule not met

Q: Decide: is the reported value of solubility in G1/S (log2) for MTRHGKNCTAGAVYTYHEKKKDTAASGYGTQNIRLSRDAVKDFDCCCLSLQPCHDPVVTPDGYLYEREAILEYILHQKKEIARQMKAYEKQRGTRREEQKELQRAASQDHVRGFLEKESAIVSRPLNPFTAKALSGTSPDDVQPGPSVGPPSKDKDKVLPSFWIPSLTPEAKATKLEKPSRTVTCPMSGKPLRMSDLTPVHFTPLDSSVDRVGLITRSERYVCAVTRDSLSNATPCAVLRPSGAVVTLECVEKLIRKDMVDPVTGDKLTDRDIIVLQRGGTGFAGSGVKLQAEKSRPVMQA [NOSIP] equal to or greater than 0.3?
A: rule not met
